# System: EKVX
# METHOD: NCI tumour cell line growth inhibition, 48 h
Calls of active or inactive are those of the source. Cut-off read from the data, not from the text of the source: active = GI50 up to about 1.1 µM and inactive = higher.
MEASURED PROPERTY: GI50

Solved entries:
# MOLECULE, GI50
records = [
    ("Brc1ccccc1/C=C\\C1(c2ccccc2)OCCO1", "15.8 µM (inactive)"),
    ("O=C(Cc1nc2ccccc2s1)Nc1ccc(Cl)cc1", "> 100 µM (inactive)"),
    ("COC1C2c3ccccc3C(C#N)(Cc3ccc4c(c32)OCO4)N1C(=O)c1ccccc1 (configuration not stated)", "45.8 µM (inactive)"),
    ("O=c1[nH][nH]c(=O)n1/N=C/c1ccccc1", "> 100 µM (inactive)"),
    ("O=C1c2ccccc2C(=O)c2c(NCC3CO3)cccc21 (configuration not stated)", "17.5 µM (inactive)"),
    ("CC(=O)c1c2c(cc3c1CC1(Cc4cc5c(cc4C1)CCC5)C3)CCC2", "> 100 µM (inactive)"),
    ("CN(C)c1ccc(/C=c2/sc3nc(=O)c(-c4ccccc4NC(=O)C(F)(F)F)nn3c2=O)cc1", "> 100 µM (inactive)"),
    ("CN(C)c1ccc2c(SCC(=O)OCC(=O)[C@@]3(O)CC[C@H]4[C@@H]5CCC6=CC(=O)C=C[C@]6(C)[C@H]5C(=O)C[C@@]43C)c3ccc(N(C)C)cc3nc2c1", "18.1 µM (inactive)"),
    ("O=C1CC(c2cccc([N+](=O)[O-])c2)C2(C(=O)NC(=S)NC2=O)C(c2cccc([N+](=O)[O-])c2)C1 (configuration not stated)", "20.4 µM (inactive)"),
    ("COC1(OC)CCc2c(sc3ncnc(Nc4cccc(Br)c4)c23)C1", "11.2 µM (inactive)"),
]

Give its GI50 value. Item: `Cn1c(=O)c2ccccc2c2ccccc21`
18.8 µM (inactive)

// repeat for `CC(C)/C(Cl)=N\OC(=O)Nc1ccc(F)c([N+](=O)[O-])c1` and report
11.7 µM (inactive)

// repeat for `CN(C)Cc1cc(O)c(O)c(CN(C)C)c1` and report
16.4 µM (inactive)

// repeat for CCOC(=O)CSc1nnc(C(Sc2nc(-c3ccccc3)c(-c3ccccc3)[nH]2)C(C)C)n1-c1ccccc1 (configuration not stated) and report
21.2 µM (inactive)

// repeat for CC(C)(C)OC1=C(OC(C)(C)C)C(O)(c2ccccc2)C1=O (configuration not stated) and report
> 100 µM (inactive)

// repeat for `CC[C@@]1(C[C@H]2C[C@@]3(C(=O)OC)c4[nH]c5ccccc5c4CCN3C2=S)COC2(CCCCC2)O1` and report
58.9 µM (inactive)

// repeat for `O=C1Oc2cc3c(c4cccc1c24)OCN(c1ccccc1)C3` and report
> 100 µM (inactive)

====

# Test system: Hs-578T
# METHOD: NCI tumour cell line growth inhibition, 48 h
Activity calls are given as the source filed them. Rule as the data show it: active = GI50 up to about 1.1 µM and inactive = higher.
Outcomes you can answer with include only these: active, inactive

# MOLECULE, CLASS NAME
data = [
    ("OC1CCCCCCCCCCC1[S+]1CCCC1.O[B-](F)(F)F (stereo unspecified)", "inactive"),
]

Which outcome was assigned to CC1C2CC(C(S(=O)(=O)O)C2=O)C1(C)C (stereo unspecified) in this test?
inactive

// repeat for `Cc1nc(-c2ccc([N+](=O)[O-])cc2)cn2c1nc1ccccc12` and report
inactive

// repeat for Cc1ccc(C)c(NC(=O)C(=O)C2C(=O)C3=C(CC2(C)C)Nc2ccccc2S3)c1 (stereo unspecified) and report
inactive

// repeat for `N#CCCN(CCC#N)c1ccc(C(/N=N/c2ccc(Cl)cc2)=N\c2ccccc2)cc1` and report
inactive

// repeat for Cc1ccc([N+](=O)[O-])cc1S(=O)(=O)Nc1ccc(C2=NNC(c3ccccc3)C2)cc1 (stereo unspecified) and report
inactive

// repeat for `C[N+](C)(C)CCC(=O)N1C/C(=C\c2ccccc2)C(=O)/C(=C/c2ccccc2)C1` and report
inactive

// repeat for `CCOC(=O)/C=C(/C)Nc1nc2c(c(C(=O)OC)c1C#N)CCCC2` and report
inactive

// repeat for `COc1ccc(-c2c(C#N)c(NC(=S)NC(=O)c3ccccc3)nc3c2CCCC3)cc1OC` and report
inactive

// repeat for CC1=NN(c2ccccc2Cl)C2(C1)C(Cl)C(=O)N2c1nc2ccccc2s1 (stereo unspecified) and report
inactive

// repeat for `CC1=C(CO)C2=C(C)C3(CC3)[C@@](C)(O)C(=O)C2=C1` and report
active

====

# System: NCI-H460
# METHOD: NCI tumour cell line growth inhibition, 48 h
Active and inactive are the calls of the source. No stated cut-off is given here; in the data, active = GI50 up to about 1.1 µM and inactive = higher.
MEASURED PROPERTY: GI50

Give its GI50 value. Item: `C[N+](C)(C)CCC(=O)N1C/C(=C\c2ccccc2)C(=O)/C(=C/c2ccccc2)C1`
7.87 µM (inactive)

// repeat for `COC(=O)CC[C@@H](C)[C@H]1CC[C@H]2[C@@H]3CC[C@@H]4C[C@H](O)CC[C@]4(C)[C@H]3CC[C@]12C` and report
19.3 µM (inactive)

// repeat for `CC(=O)Nc1ccc2nc(-c3ccccn3)c(-c3ccccn3)nc2c1` and report
> 100 µM (inactive)

// repeat for `C/N=C(\N)N/N=C(\C)c1ccc2oc3ccc(/C(C)=N/N/C(N)=N/C)cc3c2c1` and report
1.98 µM (inactive)

// repeat for `CC1=C(NC(=O)/C(=N/NC(=S)NN)C2C(=O)CC(C)(C)CC2=O)C(=O)c2ccccc2C1=O` and report
17.7 µM (inactive)

// repeat for `O=C1N=C2SC=C(NC(=S)Nc3ccccc3)N2NC12c1ccccc1-c1ccccc12` and report
> 10 µM (inactive)

// repeat for `CC(=O)c1c2c(cc3c1CC1(Cc4cc5c(cc4C1)CCC5)C3)CCC2` and report
> 100 µM (inactive)

====

# Test system: SNB-75
# METHOD: NCI tumour cell line growth inhibition, 48 h
Calls of active or inactive are those of the source. Rule as the data show it: active = GI50 up to about 1.1 µM and inactive = higher.
Outcomes you can answer with include only these: yes = active, no = inactive

# COMPOUND, CLASS NAME
data = [
    ("CSc1c(C)c(C)nn1-c1ccccc1", "no"),
]

Which outcome was assigned to COc1nc(NC2OC(COC(C)=O)C(OC(C)=O)C(OC(C)=O)C2OC(C)=O)c(/N=C(\C)C(C)=O)c(=O)n1C (stereo not given) in this test?
no

// repeat for `COC(=O)CC[C@@H](C)[C@H]1CC[C@H]2[C@@H]3CC[C@@H]4C[C@H](O)CC[C@]4(C)[C@H]3CC[C@]12C` and report
no

// repeat for `CNCCCCN(C)/[N+]([O-])=N\O` and report
no

// repeat for `CCN(CC)CCNc1ccc(/N=N/c2ccc(S(N)(=O)=O)cc2)c2ccccc12` and report
no

====

# Test system: CCRF-CEM
# METHOD: NCI tumour cell line growth inhibition, 48 h
Activity calls are given as the source filed them. No stated cut-off is given here; in the data, active = GI50 up to about 1.1 µM and inactive = higher.
Outcomes you can answer with include only these: t (active), f (inactive)

# COMPOUND, CLASS NAME
measured = [
    ("Cc1cc(OP2(=O)NCc3ncccc3O2)ccc1Cl (stereo unspecified)", "f"),
]

Which outcome was assigned to `C=C1CN(Cc2ccccc2)[C@@H]2CCCCC[C@H](C#N)[C@H]12` in this test?
f

// repeat for `O=C(/C=C/c1ccsc1)c1ccsc1` and report
f

// repeat for COC1C2c3ccccc3C(C#N)(Cc3ccc4c(c32)OCO4)N1C(=O)c1ccccc1 (stereo unspecified) and report
f

====

Attribute: GI50
# Test system: RPMI-8226
# METHOD: NCI tumour cell line growth inhibition, 48 h
The source made the active and inactive calls. Rule as the data show it: active = GI50 up to about 1.1 µM and inactive = higher.

Solved entries:
# COMPOUND, MEAS VALUE
records = [
    ("CCOC(=O)Cc1nnc2c(-c3ccccc3)nc3ccccc3n12", "> 100 µM (inactive)"),
    ("CCOc1cc(NC(C)=O)ccc1C(=O)NN1C(=O)CSC1c1ccccc1 (stereo unspecified)", "26.1 µM (inactive)"),
    ("CCN(CC)CCCC(C)Nc1c(Sc2cnc3cc(Cl)ccc3c2NC(C)CCCN(CC)CC)cnc2cc(Cl)ccc12 (stereo unspecified)", "1.91 µM (inactive)"),
    ("C/C(=N\\NC(N)=S)c1ccc2c(c1)OCO2", "> 100 µM (inactive)"),
    ("CCCCCCCCCCCCC1N=C(N)N2CCCC2=C1C(=O)OC (stereo unspecified)", "1.82 µM (inactive)"),
]

Give its GI50 value. Item: CCOC(=O)C1C(=S)NC(=O)C1C#N (stereo unspecified)
> 100 µM (inactive)

// repeat for `CC1=C(CO)C2=C(C)C3(CC3)[C@@](C)(O)C(=O)C2=C1` and report
34.1 µM (inactive)

// repeat for `O=C1/C(=C/c2ccc(O)cc2)Oc2ccccc21` and report
59.2 µM (inactive)

// repeat for C=C1CCC2(C(C)=O)COC1(C)O2 (stereo unspecified) and report
> 100 µM (inactive)

// repeat for COc1ccc(C2CCC(Cl)(OC)CC2C=O)cc1 (stereo unspecified) and report
45.7 µM (inactive)

// repeat for COc1ccc2c3c1C(=O)CCCC3CO2 (stereo unspecified) and report
> 100 µM (inactive)

The measured values listed here are drawn from ChEMBL document CHEMBL1201862.
